quantity-name: melting point

• CCCn1cc2c(C3C(=O)Nc4ccc(Br)cc43)nc(NCC3CCCN3)nc2n1 (centres undefined) = 286 to 293 °C
• COc1ccc(C=CCN2CCc3nc(N)sc3CC2)cc1OC = 122 to 126 °C
• Cc1cc(C(=O)N2Cc3cccn3Cc3ccccc32)ccc1-c1ccncc1 = 208 to 210 °C
• NC(=O)C1CCN(CCO)CC1 = 141 to 142 °C
• NS(=O)(=O)c1ccc(-n2nc(C(F)(F)F)cc2-c2ccc(-c3ccco3)cc2)cc1Cl = 193 °C
• CN1C(=O)N(Cc2cc(C(F)(F)F)cc(C(F)(F)F)c2)CC1(CCO)c1ccc(Cl)c(Cl)c1 (centres undefined) = 96 °C
• CC(=O)Nc1nc(NC(C)=O)nc(NC2CC2)n1 = 267 to 269 °C
• COc1ccc(CC(=O)Nc2c(C)c(C)c3c(c2C)C(c2ccc(C(C)C)cc2)CO3)cc1 (centres undefined) = 166 to 167 °C
• C=CCOC(=O)c1ccc(N=C(SC)c2ccc(OC)c(C34CC5CC(CC(C5)C3)C4)c2)cc1 = 50 to 53 °C

* * *

The compounds listed here are annotated with their melting point.
quantity-name: melting point

* CCC1(C(=O)O)c2ccccc2Oc2ccccc21 | 175 to 176 °C
* Cc1cc(C(=O)N2Cc3ccc(C(=O)N4CCN(C)CC4)n3Cc3ccccc32)ccc1C1=CCCc2ccccc21 | 108 °C
* COc1ccc2c(c1)c(C)cc(=O)n2-c1ccc(Cl)cc1 | 234 to 235 °C
* Clc1ccc2nc(CN3CCN(c4ccccc4Cl)CC3)cn2c1 | 123 to 124 °C
* Cc1ccc(S(=O)(=O)Oc2cccc(NC(=O)NS(=O)(=O)c3ccccc3)c2)cc1 | 162 to 170 °C
* CCCCc1nc2c(N)nc3ccccc3c2n1CCNC(=O)CCCCC1SCC2NC(=O)NC21 (centres undefined) | 124 to 126 °C
* COC(=O)c1cc(OC)ccc1Oc1cc(Cl)ccc1[N+](=O)[O-] | 114 to 116 °C
* COc1ccc(C(=O)Nc2ccc3ccc(Oc4ccccc4)nc3n2)nn1 | 95 °C
* CNC(=O)c1ccc(C)c(-n2c(C)cc(OCc3ccccc3CNC(=O)Nc3cc(C(C)(C)C)nn3-c3ccc(Cl)c(O)c3)c(Cl)c2=O)c1 | 201 to 203 °C
* CCCOc1ccc(OC)c(-c2csc(NC(=O)c3ccc(OCC(OCC)OCC)cc3)n2)c1 | 107 °C
* CN(c1cccc2cc(-c3nc(CCC(=O)O)cs3)[nH]c12)S(=O)(=O)c1cccs1 | 200 to 201 °C
* Cc1cccc(C)c1NC(=O)N1CCCN(C(C)C)C1 | 138 to 139 °C
* COc1ccc(Cn2cnc3c(-c4ccco4)nc(C#C[Si](C)(C)C)nc32)cc1 | 155 to 157 °C
* CSc1ccc(-c2nc(SC)c(C#N)c(=O)n2-c2ccc(Cl)cc2)cc1 | 203 to 205 °C
* CCCNC(=S)NCCC1Cc2ccc(-c3ccc(=O)[nH]n3)cc2C1 (centres undefined) | 155 to 157 °C
* COC(=O)/C=C/c1ccc(/C=C/c2ccncc2)nc1 | > 143 °C
* COCCCOc1ccc(/C=C(\C)C(=O)O)c(Oc2ncc(Cl)cc2Cl)c1 | 128 to 130 °C
* COCCNC(=O)c1ccc(C(=O)N2CCN(c3ncccc3NC(C)C)CC2)cc1 | 120 to 121 °C
* COC(=O)c1cc2ccc(OCCN(C)C(=O)OC(C)(C)C)cc2oc1=O | 128 to 129 °C
